// data source = patent US20240116985A1

biological target: full-length beta-Catenin (Uniprot ID P35222) (Homo sapiens, UniProt P35222); construct: 10 nM full-length beta-Catenin (Uniprot ID P35222); test: Fluorescence polarization IC50 (beta-catenin / 5FAM-TCF4 10-53 competition); format: binding; details: fluorescence polarization; read-out: beta-Catenin FP IC50
Sequence (P35222 whole entry): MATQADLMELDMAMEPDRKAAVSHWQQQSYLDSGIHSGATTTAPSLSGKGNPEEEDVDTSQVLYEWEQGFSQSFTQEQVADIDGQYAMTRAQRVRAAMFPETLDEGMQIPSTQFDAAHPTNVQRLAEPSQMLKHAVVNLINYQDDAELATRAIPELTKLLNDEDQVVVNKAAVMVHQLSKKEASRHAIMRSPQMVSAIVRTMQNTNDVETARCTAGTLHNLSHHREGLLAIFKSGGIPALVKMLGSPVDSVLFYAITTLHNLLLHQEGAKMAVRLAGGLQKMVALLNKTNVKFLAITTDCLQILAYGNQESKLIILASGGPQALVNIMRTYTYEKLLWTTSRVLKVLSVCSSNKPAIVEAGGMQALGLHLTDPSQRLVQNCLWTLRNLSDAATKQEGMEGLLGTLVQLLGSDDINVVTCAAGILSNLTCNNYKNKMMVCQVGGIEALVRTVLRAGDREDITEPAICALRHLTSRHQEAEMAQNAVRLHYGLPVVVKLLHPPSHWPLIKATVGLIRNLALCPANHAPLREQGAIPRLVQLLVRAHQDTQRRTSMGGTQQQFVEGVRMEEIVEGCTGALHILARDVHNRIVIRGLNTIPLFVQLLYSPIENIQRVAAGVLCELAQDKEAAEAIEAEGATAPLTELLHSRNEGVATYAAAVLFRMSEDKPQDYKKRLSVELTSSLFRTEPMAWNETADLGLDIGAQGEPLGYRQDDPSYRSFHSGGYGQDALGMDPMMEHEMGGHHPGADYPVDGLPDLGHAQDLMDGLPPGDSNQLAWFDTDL
pIC50: −log10 of the molar value.
Label True for high-side pIC50 (at or above 7) and False for low-side pIC50 (below it).

[[record]]
compound = "CC[C@H](C)[C@@H]1NC(=O)C[C@H](CC(=O)O)NC(=O)[C@]2(CC=CCCCC3(CCCC=CCCCCCC[C@@](C)(C(=O)N[C@@H](Cc4ccccc4)C(=O)N[C@@H](Cc4csc5ccccc45)C(=O)N[C@@H](CCC(N)=O)C(N)=O)NC(=O)[C@H](CCC(N)=O)NC(=O)[C@H](Cc4ccccc4)NC(=O)[C@H](C)NC(=O)[C@H](C)NC(=O)[C@H](CCC(=O)O)NC(=O)[C@H](CC(=O)O)NC3=O)NC1=O)CCCN2C(C)=O (some centres unmarked)"
group_label = "False"

[[record]]
compound = "CC(=O)N1CCC[C@]12CC=CCCCC1(CCCC=CCCCOC(=O)N3CC[C@@](C(=O)N[C@@H](Cc4ccsc4)C(=O)N[C@@H](Cc4csc5ccccc45)C(=O)N[C@@H](CO)C(N)=O)(C3)NC(=O)[C@H](CC(C)C)NC(=O)[C@H](Cc3ccccc3)NC(=O)[C@H](C)NC(=O)[C@H](C)NC(=O)[C@H](Cc3ccccc3C(=O)O)NC(=O)[C@H](CC(=O)O)NC1=O)NC(=O)[C@H](CC(C)(C)C)NC(=O)[C@H](CC(=O)O)NC2=O (single isomer, unassigned) [I-1666]"
group_label = "True"

[[record]]
compound = "CC(=O)N1CCC[C@]12CC=CCCCC1(CCCC=CCCCOC(=O)N3CC[C@@](C(=O)N[C@@H](Cc4ccsc4)C(=O)N[C@@H](Cc4cccc(F)c4F)C(=O)N[C@@H](CCC(N)=O)C(N)=O)(C3)NC(=O)[C@H](CC(C)C)NC(=O)[C@H](Cc3ccccc3)NC(=O)[C@H](C)NC(=O)[C@H](C)NC(=O)[C@H](CC(=O)O)NC(=O)[C@H](CC(=O)O)NC1=O)NC(=O)[C@H](CC(C)(C)C)NC(=O)[C@H](CC(=O)O)NC2=O (some centres unmarked)"
group_label = "False"

[[record]]
compound = "CC(=O)N1CCC[C@]12CC=CCCCC1(CCCC=CCCCCCC[C@@](C)(C(=O)N[C@@H](Cc3ccccc3)C(=O)N[C@@H](Cc3csc4ccccc34)C(=O)N[C@@H](CCC(N)=O)C(N)=O)NC(=O)[C@H](CCC(N)=O)NC(=O)[C@H](Cc3ccccc3)NC(=O)[C@H](C)NC(=O)[C@H](C)NC(=O)[C@H](CC(=O)O)NC(=O)[C@H](CC(=O)O)NC1=O)NC(=O)[C@H](CC(C)C)NC(=O)[C@H](CC(=O)O)NC2=O (some centres unmarked) [I-559]"
group_label = "True"


Entry CC(=O)N1CCN(C(=O)CC[C@@H]2NC(=O)[C@H](Cc3cccc(C(=O)O)c3)NC(=O)[C@H](CC(=O)O)NC(=O)C3(CCCC=CCCCOC(=O)N4CC[C@@](C(=O)N[C@@H](Cc5ccccc5C(F)(F)F)C(=O)N[C@@H](Cc5csc6ccccc56)C(=O)N[C@@H](C)C(N)=O)(C4)NC(=O)[C@H](CC(C)C)NC(=O)[C@H](Cc4ccccc4)NC(=O)[C@H](C)NC2=O)CCCC=CC[C@]2(CCCN2C(C)=O)C(=O)N[C@@H](CC(=O)O)C(=O)N[C@@H](CC(C)(C)C)C(=O)N3)CC1 (some centres unmarked) : is its pIC50 no less than 7?
True
